Molecular target: T1, ARHGEF11, O15085
T1 sequence (O15085 42-136, limits assumed, looked up): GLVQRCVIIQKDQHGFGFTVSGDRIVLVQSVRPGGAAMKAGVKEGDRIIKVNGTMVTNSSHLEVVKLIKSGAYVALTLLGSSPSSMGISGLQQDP
Experiment: holdup assay
Parameters: key: below the threshold = too weak to quantify, mostly under pKd 3.1 to 4
Settings: plain residues with an end cap or a label only (N-terminal biotin on a linker: ado-ado)
Measured endpoint: pKd
Numbers only.

# Binder, Measured endpoint, Result value
measured = [
    ("NIAESLESLV [PTPRZ1, P23471]", "pKd", 3.67),
    ("APIAGFSSFV [SDK2, Q58EX2]", "pKd", 3.72),
    ("AAVENKVTDL [PLXNB1, O43157]", "pKd", 4.65),
    ("ILRKSTTTTV [PRR16, Q569H4]", "pKd", 4.04),
    ("LESTTVGTSV [KARS1, Q15046]", "pKd", 4.04),
]

// below: pKd requested for another binder
Prompt: Given PPGKHLVTEV [KCNA7, Q96RP8] , state its recorded pKd.
Completion: 5.2
